From: patent US10442813B2

Assay: Solubility of rucaparib camsylate Form beta in USP standard buffers adjusted to different pHs, 37° C.
Format: physicochemical
Settings: USP standard buffer pH 6.8, aqueous buffer, thermodynamic from solid; USP buffer pH 6.8, 37° C.; read-out: Solubility
recorded.endpoint: solubility

[in] Entry under review: CNCc1ccc(-c2[nH]c3cc(F)cc4c3c2CCNC4=O)cc1 [Rucaparib Form beta] . Reported solubility?
[out] < 100 µg/mL

====

Experiment: Solubility of rucaparib camsylate Form beta in USP standard buffers adjusted to different pHs, 37° C.
Format: physicochemical
Conditions: thermodynamic from solid; Water, 37° C.; read-out: Solubility
recorded.endpoint: solubility

[in] Given the molecule CNCc1ccc(-c2[nH]c3cc(F)cc4c3c2CCNC4=O)cc1 [Rucaparib Form beta] , what is its reported solubility?
[out] < 100 µg/mL
